// data source = ChEMBL document CHEMBL1152931

# TARGET_OR_TEST_SYSTEM: Glycogen phosphorylase, muscle form (Oryctolagus cuniculus)
# Sequence (P00489 whole entry): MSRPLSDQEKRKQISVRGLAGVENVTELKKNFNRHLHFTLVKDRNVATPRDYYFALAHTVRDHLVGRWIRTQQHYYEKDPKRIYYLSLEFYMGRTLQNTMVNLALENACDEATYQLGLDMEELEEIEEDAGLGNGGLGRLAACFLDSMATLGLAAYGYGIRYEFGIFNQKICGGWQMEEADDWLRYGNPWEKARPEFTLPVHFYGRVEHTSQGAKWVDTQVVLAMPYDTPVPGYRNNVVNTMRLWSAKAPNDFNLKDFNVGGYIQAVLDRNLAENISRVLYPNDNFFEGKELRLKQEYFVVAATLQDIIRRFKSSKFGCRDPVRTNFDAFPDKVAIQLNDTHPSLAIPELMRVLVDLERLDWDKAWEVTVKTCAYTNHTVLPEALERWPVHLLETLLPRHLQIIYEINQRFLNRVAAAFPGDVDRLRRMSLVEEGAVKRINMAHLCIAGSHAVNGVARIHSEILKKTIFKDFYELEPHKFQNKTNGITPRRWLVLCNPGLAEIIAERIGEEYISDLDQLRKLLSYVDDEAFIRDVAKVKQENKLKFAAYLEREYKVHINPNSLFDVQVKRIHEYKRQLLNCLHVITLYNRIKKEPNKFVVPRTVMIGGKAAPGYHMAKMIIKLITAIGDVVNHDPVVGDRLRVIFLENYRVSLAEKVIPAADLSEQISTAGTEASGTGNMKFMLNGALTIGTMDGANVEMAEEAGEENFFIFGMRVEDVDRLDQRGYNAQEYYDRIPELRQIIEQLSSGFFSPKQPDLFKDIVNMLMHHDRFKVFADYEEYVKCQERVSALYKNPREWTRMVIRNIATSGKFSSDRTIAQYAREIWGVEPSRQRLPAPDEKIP
# RUN_DESCRIPTION: Inhibition of rabbit muscle glycogen phosphorylase
READOUT_NAME: IC50 (µM)

P: O=C(Cn1cccc(NCc2ccccc2)c1=O)N[C@H](CO)c1ccccc1
Q: O=C(Cn1cccc(NCc2ccccc2)c1=O)NC1CCN(Cc2ccccc2)CC1
R: CC(=O)Nc1cccn(CC(=O)NCc2ccc(Cl)c(Cl)c2)c1=O
[in] Highest IC50 first, then in falling order down to the smallest. Labels, ranked as asked.
[out] Q, R, P
